# targetOrTestSystem: HCV NS5B polymerase (His-tagged, C-terminal 21 amino acid deleted NS5B, HC-J4) (Hepatitis C virus genotype 1b)
# Construct: The cDNA encoding NS5B amino acid 1-570 (HC-J4, genotype 1b); His tag (His6, from pET-21b) (C); made in house; host or cells: E. coli BL21 (DE3)
# assayOverview: NS5b polymerase assay (biochemical RdRp assay, 3H-GTP incorporation, SPA beads)
# Design: species or system HCV genotype 1b
# conditionDetails: 200 nM enzyme, 3H-GTP incorporation, 2 h at 25° C.; read-out: NS5B Polymerase Assay IC50
# Description: The compounds of formula (I) were tested for anti-HCV activity in an assay determining their activity against NS5b polymerase and in an HCV replicon assay The cDNA encoding NS5B amino acid 1-570 (HC-J4, genotype 1b, pCV-J4L6S, genebank accession number AF054247) was subcloned into the Nhe I and Xho I restriction sites of pET-21b. Expression of the subsequent His-tagged C-terminal 21 amino acid deleted NS5B was performed as follows: […]
pIC50: −log10 of the molar value.
measurementName: pIC50

Some solved cases for reference:
>>> df
                                   compound  resultvalue
0  CCOc1ccccc1C1CC(=O)C2=C(C1)Nc1ccccc1N(C(=O)CC)C2c1ccc(OC)cc1 (stereo not shown)       < 4.37
1  COc1ccc(C2CC(=O)C3=C(C2)Nc2ccccc2N(C(C)=O)C3c2cccc(Cl)c2)cc1OC (mixture of isomers)       < 4.48
2  CCC(=O)N1c2ccccc2NC2=C(C(=O)CC(c3ccc(OC)c(OC)c3)C2)C1c1ccc(Cl)cc1 (stereo not shown)       < 4.48
3  CCCCCC(=O)N1c2ccccc2NC2=C(C(=O)CC(c3ccc(OC)c(OC)c3)C2)C1c1cccc(Cl)c1 (mixture of isomers)       < 4.48
4  O=C1CC(c2ccc(Cl)cc2)CC2=C1C(c1cccc(Cl)c1)N(C(=O)c1ccccc1)c1ccccc1N2 (mixture of isomers)       < 4.48

Record pIC50 for all entries; do not skip any.
1. COc1ccc(C2C3=C(CC(c4ccc(C)cc4)CC3=O)Nc3ccccc3N2C(=O)c2ccccc2)cc1 (mixture of isomers)
2. CC(=O)N1c2ccccc2NC2=C(C(=O)CC(c3ccccc3F)C2)C1c1ccccc1 (stereo not shown)

Result:
1. < 4.48
2. < 4.37

###

# targetOrTestSystem: HCV NS5B polymerase (His-tagged, C-terminal 21 amino acid deleted NS5B, HC-J4) (Hepatitis C virus genotype 1b, UniProt O92972)
# Construct: The cDNA encoding NS5B amino acid 1-570 (HC-J4, genotype 1b); His tag (His6, from pET-21b) (C); made in house; host or cells: E. coli BL21 (DE3)
# Sequence (O92972 2417-3000, looked up, stated change not applied): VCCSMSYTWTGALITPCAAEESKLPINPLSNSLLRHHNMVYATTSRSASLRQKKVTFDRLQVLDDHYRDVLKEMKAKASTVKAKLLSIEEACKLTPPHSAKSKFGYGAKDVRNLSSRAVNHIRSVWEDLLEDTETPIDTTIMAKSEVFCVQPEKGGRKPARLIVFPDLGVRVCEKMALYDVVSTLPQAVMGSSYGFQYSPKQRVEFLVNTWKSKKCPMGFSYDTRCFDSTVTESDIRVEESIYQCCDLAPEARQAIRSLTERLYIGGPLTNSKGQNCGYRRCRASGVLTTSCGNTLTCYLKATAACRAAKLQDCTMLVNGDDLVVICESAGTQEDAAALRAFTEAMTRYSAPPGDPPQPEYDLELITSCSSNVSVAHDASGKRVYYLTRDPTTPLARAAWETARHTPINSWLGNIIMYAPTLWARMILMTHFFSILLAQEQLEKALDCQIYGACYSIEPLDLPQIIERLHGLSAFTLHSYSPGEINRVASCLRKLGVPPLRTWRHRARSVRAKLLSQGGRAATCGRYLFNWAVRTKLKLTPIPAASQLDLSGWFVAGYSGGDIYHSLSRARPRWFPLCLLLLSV
# assayOverview: NS5b polymerase assay (biochemical RdRp assay, 3H-GTP incorporation, SPA beads)
# Set-up: species or system HCV genotype 1b
# conditionDetails: NS5B Polymerase Assay IC50 (μM)
measurementName: IC50

Some solved cases for reference:
In [3]: df
Out[3]:
                                   compound  measurementname  resultvalue
0  O=C1CC(c2ccccc2)CC2=C1C(c1ccccc1[N+](=O)[O-])Nc1ccccc1N2 (stereo not shown) [compound 396]             IC50    > 42.7 µM
1  CC1(C)CC(=O)C2=C(C1)Nc1ccccc1NC2c1ccc(Oc2ccccc2Br)cc1 (stereo not shown) [compound 442]             IC50     > 133 µM
2  COc1ccc(C2CC(=O)C3=C(C2)Nc2ccccc2NC3c2ccccc2C)cc1 (stereo not shown) [compound 381]             IC50    > 42.7 µM

// below: IC50 requested for another compound
Ask: Need IC50 of O=C1CC(c2ccco2)CC2=C1C(c1ccc(Cl)cc1)Nc1ccccc1N2 (stereo not shown) [compound 413] , thanks.
Result: > 33.3 µM

###

Please go through the items and note down their pIC50.
# targetOrTestSystem: HCV NS5B polymerase (His-tagged, C-terminal 21 amino acid deleted NS5B, HC-J4) (Hepatitis C virus genotype 1b)
# Construct: The cDNA encoding NS5B amino acid 1-570 (HC-J4, genotype 1b); His tag (His6, from pET-21b) (C); made in house; host or cells: E. coli BL21 (DE3)
# assayOverview: NS5b polymerase assay (biochemical RdRp assay, 3H-GTP incorporation, SPA beads)
# Design: species or system HCV genotype 1b
# conditionDetails: 200 nM enzyme, 3H-GTP incorporation, 2 h at 25° C.; read-out: NS5B Polymerase Assay IC50
pIC50: −log10 of the molar value.

In [3]: df
Out[3]:
                                   compound  measurementname  resultvalue
0  Cc1ccc(C2C3=C(CC(c4ccc(Cl)cc4)CC3=O)Nc3ccccc3N2C(=O)C(F)(F)F)cc1 (stereo not shown)            pIC50       < 4.48
1  COc1ccc(C2C3=C(CC(c4cccc([N+](=O)[O-])c4)CC3=O)Nc3ccccc3N2C(=O)c2ccccc2)cc1 (stereo not shown)            pIC50       < 4.37
2  CCC(=O)N1c2ccccc2NC2=C(C(=O)CC(c3ccco3)C2)C1c1cccc([N+](=O)[O-])c1 (stereo not shown)            pIC50       < 4.37

// below: pIC50 requested for another compound
Ask: Need pIC50 of COc1ccc(C2CC(=O)C3=C(C2)Nc2ccccc2N(C(=O)c2ccccc2)C3c2ccc(C)cc2)cc1 (mixture of isomers) , thanks.
Result: < 4.48

###

Please go through the items and note down their pIC50.
# targetOrTestSystem: HCV NS5B polymerase (His-tagged, C-terminal 21 amino acid deleted NS5B, HC-J4) (Hepatitis C virus genotype 1b, UniProt O92972)
# Construct: The cDNA encoding NS5B amino acid 1-570 (HC-J4, genotype 1b); His tag (His6, from pET-21b) (C); made in house; host or cells: E. coli BL21 (DE3)
# assayOverview: NS5b polymerase assay (biochemical RdRp assay, 3H-GTP incorporation, SPA beads)
# Parameters: species or system HCV genotype 1b
# conditionDetails: NS5B Polymerase Assay IC50, 200 nM enzyme, 3H-GTP incorporation, 2 h at 25° C.
pIC50: −log10 of the molar value.

Some solved cases for reference:
In [3]: df
Out[3]:
                                   molecule  resultvalue
0  CC1(C)CC(=O)C2=C(C1)Nc1ccccc1N(C(=O)c1ccccc1)C2c1ccccc1F (centres unmarked)       < 4.37
1  CC(=O)N1c2ccccc2NC2=C(C(=O)CC(C)(C)C2)C1c1cccc(F)c1 (centres unmarked)       < 4.37

Record pIC50 for all entries; do not skip any.
1. CC(=O)N1c2cc(F)c(F)cc2NC2=C(C(=O)CC(C)(C)C2)C1c1ccc(Cl)cc1Cl (centres unmarked)
2. CC1(C)CC(=O)C2=C(C1)Nc1ccccc1N(C(=O)C(F)(F)F)C2c1ccc(Cl)cc1Cl (centres unmarked)
3. COc1cccc2c1NC1=C(C(=O)CC(C)(C)C1)C(c1ccc(Cl)cc1Cl)N2C(C)=O (centres unmarked)
4. CC1(C)CC(=O)C2=C(C1)Nc1ccccc1N(C(=O)c1ccccc1)C2c1ccc(Br)cc1 (centres unmarked)
5. COc1ccc(OC)c(C2C3=C(CC(C)(C)CC3=O)Nc3ccccc3N2C(=O)Cc2ccccc2)c1 (centres unmarked)
6. CC(C)CC(=O)N1c2ccccc2NC2=C(C(=O)CC(C)(C)C2)C1c1ccc(Cl)c(Cl)c1 (centres unmarked)

Result:
1. 4.84
2. < 3.88
3. 5.17
4. < 4.37
5. < 4.37
6. < 4.48

###

# targetOrTestSystem: HCV NS5B polymerase (His-tagged, C-terminal 21 amino acid deleted NS5B, HC-J4) (Hepatitis C virus genotype 1b)
# Construct: The cDNA encoding NS5B amino acid 1-570 (HC-J4, genotype 1b); His tag (His6, from pET-21b) (C); made in house; host or cells: E. coli BL21 (DE3)
# assayOverview: NS5b polymerase assay (biochemical RdRp assay, 3H-GTP incorporation, SPA beads)
# Parameters: species or system HCV genotype 1b
# conditionDetails: 200 nM enzyme, 3H-GTP incorporation, 2 h at 25° C.; read-out: NS5B Polymerase Assay IC50
measurementName: IC50

Some solved cases for reference:
In [3]: df
Out[3]:
                                   compound  resultvalue
0  CCCCCC(=O)N1c2ccccc2NC2=C(C(=O)CC(c3cccc([N+](=O)[O-])c3)C2)C1c1ccc(OC)cc1 (stereo not shown) [compound 168]    > 42.7 µM
1  CCC(=O)N1c2ccccc2NC2=C(C(=O)CC(c3ccc(OC)cc3)C2)C1c1ccc(Cl)cc1 (stereo not shown) [compound 227]    > 33.3 µM
2  COc1ccc(C2CC(=O)C3=C(C2)Nc2ccccc2N(C(=O)c2ccccc2)C3c2ccc(C)cc2)cc1OC (stereo not shown) [compound 170]    > 42.7 µM
3  O=C1CC(c2ccco2)CC2=C1C(c1cccc([N+](=O)[O-])c1)N(C(=O)c1ccccc1)c1ccccc1N2 (stereo not shown) [compound 286]    > 42.7 µM

Record IC50 for all entries; do not skip any.
1. CCCCCC(=O)N1c2ccccc2NC2=C(C(=O)CC(c3ccccc3OCCC)C2)C1c1ccc(OC)cc1 (stereo not shown) [compound 222]
2. CCC(=O)N1c2ccccc2NC2=C(C(=O)CC(c3ccc(OC)c(OC)c3)C2)C1c1cccc(Cl)c1 (mixture of isomers) [compound 193]
3. COc1ccc(C2CC(=O)C3=C(C2)Nc2ccccc2N(C(C)=O)C3c2ccco2)cc1 (stereo not shown) [compound 298]

Result:
> 42.7 µM
> 33.3 µM
> 42.7 µM
